Values compiled from paper PMC3135787.

system: genotype 1a H77 subgenomic replicon; assay: HCV replicon assay, genotype 1a H77; type: cell-based; conditions: GT1a_H77 replicon, four days
Some molecules, each annotated with its measured pEC50.
Answer as the number alone; pEC50 is minus log10 of concentration in mol/L.

molecule="COc1nc(N)nc2c1ncn2[C@@H]1O[C@H](COP(=O)(N[C@@H](C)C(=O)OC(C)C)Oc2ccccc2)[C@@H](O)[C@@]1(C)F (some centres unmarked)" target_entity="genotype 1a H77 subgenomic replicon" value_observed=8.35

With those in mind, consider the next molecule.
stdin: Entry `C[C@@]1(F)[C@H](O)[C@@H](CO)O[C@H]1n1cnc2c(=O)[nH]c(N)nc21` has what pEC50?
stdout: 4.72

* * *

system: BxPC3 cells; test: 8-day MTS cytotoxicity assay, BxPC3; assay type: cell-based, human; conditions: BxPC3, eight days, MTS
attribute_measured: CC50

stdin: Consider the compound COc1nc(N)nc2c1ncn2[C@@H]1O[C@H](COP(=O)(N[C@@H](C)C(=O)OC(C)C)Oc2ccccc2)[C@@H](O)[C@@]1(C)F (stereo partly shown) and give its measured CC50.
stdout: > 100 µM

* * *

test system: mitochondrial COXII DNA (mtDNA); experiment: Mitochondrial COXII DNA and ribosomal DNA by real time PCR, CEM; type: cell-based, human; conditions: human
attribute_measured: CC90 at 14 days (µM)
Please state the figure in µM; there is no need to write the unit.

stdin: Look up CC90 at 14 days: COc1nc(N)nc2c1ncn2[C@@H]1O[C@H](COP(=O)(N[C@@H](C)C(=O)OCC(C)(C)C)Oc2cccc3ccccc23)[C@@H](O)[C@@]1(C)O (some centres unmarked) [INX-08189]
stdout: 16.9

* * *

test: 8-day MTS cytotoxicity assay, CEM; format: cell-based, human; conditions: human
attribute_measured: CC50 at 8 days (µM)
Please state the figure in µM; there is no need to write the unit.

stdin: Would you kindly share the measured CC50 at 8 days for COc1nc(N)nc2c1ncn2[C@@H]1O[C@H](COP(=O)(N[C@@H](C)C(=O)OCC(C)(C)C)Oc2cccc3ccccc23)[C@@H](O)[C@@]1(C)O (stereo partly shown) ?
stdout: 15

* * *

system: mitochondrial COXII DNA (mtDNA); assay: Mitochondrial COXII DNA and ribosomal DNA by real time PCR, HepG2; format: cell-based, human; conditions: human
attribute_measured: CC90 at 14 days (nM)
Kindly answer with a numeric value in nM, unit omitted.

stdin: Need CC90 at 14 days, item COc1nc(N)nc2c1ncn2[C@@H]1O[C@H](COP(=O)(N[C@@H](C)C(=O)OCC(C)(C)C)Oc2cccc3ccccc23)[C@@H](O)[C@@]1(C)O (some centres unmarked)
stdout: 970

* * *

Overview of recorded Km for various compounds
biological target: recombinant human ADAL1 (Homo sapiens, UniProt Q6DHV7); test: ADAL1-mediated demethylation assay; assay type: biochemical; details: ADAL1, pH 6.7, 37°C
Sequence (Q6DHV7 whole entry): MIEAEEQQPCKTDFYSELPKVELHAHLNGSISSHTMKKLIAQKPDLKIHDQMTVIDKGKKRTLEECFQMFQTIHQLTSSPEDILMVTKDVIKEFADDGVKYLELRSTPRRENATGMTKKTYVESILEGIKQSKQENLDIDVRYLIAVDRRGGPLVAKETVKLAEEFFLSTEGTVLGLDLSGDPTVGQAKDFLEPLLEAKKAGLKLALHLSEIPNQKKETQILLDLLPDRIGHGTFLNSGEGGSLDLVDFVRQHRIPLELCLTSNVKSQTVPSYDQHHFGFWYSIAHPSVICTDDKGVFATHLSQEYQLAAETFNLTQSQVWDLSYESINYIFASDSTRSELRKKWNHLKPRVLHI
Number in µM, nothing else.

Worked examples, 2 compounds total:
compound="COc1nc(N)nc2c1ncn2[C@@H]1O[C@H](COP(=O)(O)O)[C@@H](O)[C@H]1O [O^6-meGMP, O^6-methyl GMP, reference compound]" value_observed=5.2
compound="COc1nc(N)nc2c1ncn2[C@@H]1O[C@H](COP(=O)(O)O)[C@@H](O)[C@@]1(C)F [PSI-353224]" value_observed=9

Pending compound:
stdin: // returns reported Km for input CNc1ncnc2c1ncn2[C@@H]1O[C@H](COP(=O)(O)O)[C@@H](O)[C@H]1O [N^6-meAMP, N^6-methyl AMP, reference compound]
stdout: 12.5
